assay: in vitro; settings: mouse, dividing ScN2a-cl3 cells
Measured CC50 at 120 h of individual entries

Observe how each entry below is paired with its result.
>>> print(df.to_string())
                                   compound         metric  observed_measurement
0  COc1ccc(-c2ccc3c(N)c(C(=O)Nc4ccc(OC)c(OC)c4)sc3n2)cc1  CC50 at 120 h               > 10 µM
1  Nc1c(/N=N/c2ccc(-c3ccc(/N=N/c4cc(S(=O)(=O)O)c5ccccc5c4N)cc3)cc2)cc(S(=O)(=O)O)c2ccccc12  CC50 at 120 h               > 10 µM
2  COc1ccc(-c2ccc3c(N)c(C(=O)Nc4ccc(F)cc4)sc3n2)cc1  CC50 at 120 h               > 10 µM
3  Cc1ccc2[nH]c3c(c2c1)CCCC3NCCCN(C)C (stereo not given)  CC50 at 120 h               > 10 µM
4    CC(=O)c1ccc2c(c1)N(CCCN(C)C)c1ccccc1S2  CC50 at 120 h               > 10 µM

Given CN1CCc2cccc3c2[C@H]1Cc1ccc(O)c(O)c1-3 , respond with its CC50 at 120 h.
> 10 µM

Note down CC50 at 120 h recorded for COc1ccc(CNC(=O)c2sc3nc(-c4cccs4)ccc3c2N)cc1
> 10 µM

State, in one line, measured CC50 at 120 h of Nc1c(C(=O)Nc2ccc3c(c2)OCCO3)sc2nc(-c3cccs3)ccc12
> 10 µM

Output CC50 at 120 h of CC(=O)c1ccc(NC(=O)c2sc3nc(-c4cccs4)ccc3c2N)cc1
> 10 µM

Answer with the recorded CC50 at 120 h of CCOc1ccc(/N=N/c2ccc(N)cc2N)cc1 only.
> 10 µM

====

assay: cells; format: cell-based; conditions: Mus musculus, N2a-cl3, 120 h
The entries below come with measured pEC50 values attached.
As a rule, pEC50 stands for the negative log10 of the concentration, concentration in M.

Some compounds with recorded pEC50:
Compound	Observed measurement
CCOc1ccc(NC(=O)c2cc3ccccc3cc2O)cc1	6.89
COc1ccc2cc1Oc1ccc(cc1)C[C@H]1c3cc(c(OC)cc3CCN1C)Oc1c(OC)c(OC)cc3c1[C@H](C2)N(C)CC3	5.67
COc1ccc(-c2ccc3c(N)c(C(=O)Nc4cc(OC)c(OC)c(OC)c4)sc3n2)cc1	6.38
CCOc1ccc(C(=O)Nc2ccc3oc(-c4ccc(OC)cc4)nc3c2)cc1	7.22
COc1ccc(-c2ccc3c(N)c(C(=O)Nc4ccc(SC)cc4)sc3n2)cc1	6.54

// Input: Oc1ccc(/C=C/c2cc(O)cc(O)c2)cc1 . Output its pEC50 only.
5.51

For COc1ccc(CNC(=O)c2sc3nc(-c4cccs4)ccc3c2N)cc1 , write its pEC50.
5.74

Tell me measured pEC50 for Nc1c(C(=O)Nc2ccc(F)cc2)sc2nc(-c3ccc4c(c3)OCO4)ccc12 please.
6.12

Assign pEC50 to the following record: Cn1c(=N)n(CC(=O)c2ccc(Br)cc2)c2ccccc21
5.59

====

experiment: cells; assay type: cell-based; settings: Mus musculus, N2a-cl3, 120 h
pEC50 overview
To interpret pEC50, take it as minus log10 of a concentration measured in moles per litre.

>>> print(df.to_string())
                               entry_smiles  observed_measurement
0  COc1ccc(-c2nc3cc(NC(=O)c4ccc(OCc5ccccc5)cc4)ccc3o2)cc1                  7.15
1   COc1ccc(-c2cc(-c3ccc(OC)cc3O)[nH]n2)cc1                  7.15
2    CC(=O)c1ccc2c(c1)N(CCCN(C)C)c1ccccc1S2                  5.16

Okay, now this molecule:
Determine its reported pEC50: O=C(Nc1nc(-c2ccc3ccccc3c2)cs1)C1CC1
6.00

====

As shown below, each of these compounds has a reported AUC(0-t) value.
test: AUClast in FVB mouse plasma at 10 mg/kg, po qd; format: ADME, organism-based; set-up: time 0 - last, dose 10 mg/kg, route oral
The response must be a number in µM·h with no trailing unit.

Give the reported value of AUC(0-t) for this record: N#Cc1sc2nc(-c3ccc4c(c3)OCO4)ccc2c1N
1.56

Report AUC(0-t) for CN1CCN(c2ccc(Nc3ccnc4cc(Cl)ccc34)cc2)CC1
0.82

====

assay: Cytotoxicity against mouse stationary-phase ScN2a-cl3 cells assessed as cell viability after 5 days by calcein-AM staining-based fluorescence assay; design: species or system N2a-cl3; conditions: read-out: LC50
Metric: CC50 at 120 h

Give me measured CC50 at 120 h, please, for this compound: Cc1ccc2[nH]c3c(c2c1)CCCC3NCCCN(C)C (stereo unspecified)
> 10 µM

====

assay: Cmax in FVB mouse plasma at 10 mg/kg, po qd; format: ADME, organism-based; set-up: dose 10 mg/kg, route oral
Metric: Cmax
Please format your answer as a value with the unit trailing.

In [3]: df
Out[3]:
                          entry_smiles  observed_measurement
0  N#Cc1sc2nc(-c3ccc4c(c3)OCO4)ccc2c1N                130 nM

Next compound, please.
Supply reported Cmax belonging to this compound: CN1CCN(c2ccc(Nc3ccnc4cc(Cl)ccc34)cc2)CC1
410 nM

====

test: cells; format: cell-based; conditions: Mus musculus, N2a-cl3, 120 h
Parameter: EC50. Scope: all listed entries.
Numbers only here, please. The scale is µM.

                                   compound  metric  observed_measurement
0              CCc1ccc(-c2cn3cc(C)sc3n2)cc1    EC50                  1.78
1       CC(=O)c1ccc(N2CCN(Cc3ccccc3)CC2)cc1    EC50                  0.71
2  COc1ccccc1OCCNCC(O)COc1cccc2[nH]c3ccccc3c12 (stereo unspecified)    EC50                  2.28

Consider the compound Cc1ccc2[nH]c3c(c2c1)CCCC3NCCCN(C)C (stereo unspecified) and give its recorded EC50.
1.58

Return the recorded EC50 value; entry: Cc1[nH]c2ccccc2c1-c1csc(-c2cccnc2)n1
3.13

For Nc1c(C(=O)Nc2ccc3c(c2)OCCO3)sc2nc(-c3cccs3)ccc12 , write its EC50.
0.42

====

experiment: cells; type: cell-based; conditions: Mus musculus, N2a-cl3, 120 h
Metric: pEC50
# pEC50 is unitless: minus log10 of the molar concentration; print number only

>>> print(df.to_string())
                               entry_smiles  observed_measurement
0         OCCNCc1cc(Br)ccc1OCc1ccc(Cl)cc1Cl                  5.37
1  Nc1c(C(=O)Nc2cc(F)ccc2F)sc2nc(-c3ccncc3)ccc12                  5.65
2             N#Cc1ccc(/C=C/c2ccc(F)cc2)cc1                  5.82
3  COc1ccc(-c2ccc3c(N)c(C(=O)Nc4ccc(F)cc4)sc3n2)cc1OC                  6.62
4     c1cncc(-c2nc(-c3c[nH]c4ccccc34)cs2)c1                  6.57

Please report the measured pEC50 for COc1ccc(C(=O)Nc2ccc(-c3csc(C)n3)cc2)cc1
6.40

Indicate the recorded pEC50 value for this molecule: CCc1ccc(-c2cn3ccccc3n2)cc1
5.04

Kindly indicate its recorded pEC50. Item: COc1ccc(-c2cc(-c3ccc(C)cc3O)[nH]n2)cc1
6.59

Read the entry CCc1ccc(-c2cn3cc(C)ccc3n2)cc1 and write its reported pEC50.
6.15

Name the recorded pEC50 of the molecule listed here: c1ccc2cc(-c3cn4ccsc4n3)ccc2c1
5.22

Indicate the recorded pEC50 value for this molecule: COc1ccc(-c2ccc3c(N)c(C(=O)Nc4ccc(F)cc4)sc3n2)cc1
6.85

Please report pEC50 for the following molecule: COc1cccc(Nc2nc(N)c3ccccc3n2)c1
5.40

====

test: cells; type: cell-based; settings: Mus musculus, N2a-cl3, 120 h
pEC50: −log10 of the molar value.
Decision: pEC50 >= 6 yields true (1), all other cases yield false (0).

Compound	Qualitative label
CN1CCc2cccc3c2[C@H]1Cc1ccc(O)c(O)c1-3	false (0)

hey, is pEC50 for this one >= 6? COc1ccc(-c2ccc3c(N)c(C(=O)Nc4ccc(OC)c(OC)c4)sc3n2)cc1
false (0)

Does the reported pEC50 for CC(=O)c1ccc(NC(=O)c2sc3nc4c(cc3c2N)CCCC4)cc1 fall at or above the 6 mark?
false (0)

Assess whether reported pEC50 for COc1ccc(-c2ccc3c(N)c(C(=O)Nc4cc(F)ccc4F)sc3n2)cc1 sits at 6 or higher.
false (0)

Kindly determine if pEC50 recorded for Cn1c(=N)n(CC(=O)c2ccc(Cl)cc2)c2ccccc21 is above or exactly 6.
false (0)

Could you tell me if the measured pEC50 of COc1ccc(CCNC(=O)c2sc3nc(-c4cccs4)ccc3c2N)cc1OC reaches 6 or more?
false (0)

API: above_or_equal(metric=pEC50, cutoff=6) for item CC(=O)c1ccc(NC(=O)c2sc3nc(-c4cccs4)ccc3c2N)cc1
true (1)
